experimental target: telomerase (Homo sapiens, UniProt O14746)
Construct: cells, tissues, or preferably a cellular extract or other preparation containing telomerase; endogenous in cells
Sequence (O14746 whole entry): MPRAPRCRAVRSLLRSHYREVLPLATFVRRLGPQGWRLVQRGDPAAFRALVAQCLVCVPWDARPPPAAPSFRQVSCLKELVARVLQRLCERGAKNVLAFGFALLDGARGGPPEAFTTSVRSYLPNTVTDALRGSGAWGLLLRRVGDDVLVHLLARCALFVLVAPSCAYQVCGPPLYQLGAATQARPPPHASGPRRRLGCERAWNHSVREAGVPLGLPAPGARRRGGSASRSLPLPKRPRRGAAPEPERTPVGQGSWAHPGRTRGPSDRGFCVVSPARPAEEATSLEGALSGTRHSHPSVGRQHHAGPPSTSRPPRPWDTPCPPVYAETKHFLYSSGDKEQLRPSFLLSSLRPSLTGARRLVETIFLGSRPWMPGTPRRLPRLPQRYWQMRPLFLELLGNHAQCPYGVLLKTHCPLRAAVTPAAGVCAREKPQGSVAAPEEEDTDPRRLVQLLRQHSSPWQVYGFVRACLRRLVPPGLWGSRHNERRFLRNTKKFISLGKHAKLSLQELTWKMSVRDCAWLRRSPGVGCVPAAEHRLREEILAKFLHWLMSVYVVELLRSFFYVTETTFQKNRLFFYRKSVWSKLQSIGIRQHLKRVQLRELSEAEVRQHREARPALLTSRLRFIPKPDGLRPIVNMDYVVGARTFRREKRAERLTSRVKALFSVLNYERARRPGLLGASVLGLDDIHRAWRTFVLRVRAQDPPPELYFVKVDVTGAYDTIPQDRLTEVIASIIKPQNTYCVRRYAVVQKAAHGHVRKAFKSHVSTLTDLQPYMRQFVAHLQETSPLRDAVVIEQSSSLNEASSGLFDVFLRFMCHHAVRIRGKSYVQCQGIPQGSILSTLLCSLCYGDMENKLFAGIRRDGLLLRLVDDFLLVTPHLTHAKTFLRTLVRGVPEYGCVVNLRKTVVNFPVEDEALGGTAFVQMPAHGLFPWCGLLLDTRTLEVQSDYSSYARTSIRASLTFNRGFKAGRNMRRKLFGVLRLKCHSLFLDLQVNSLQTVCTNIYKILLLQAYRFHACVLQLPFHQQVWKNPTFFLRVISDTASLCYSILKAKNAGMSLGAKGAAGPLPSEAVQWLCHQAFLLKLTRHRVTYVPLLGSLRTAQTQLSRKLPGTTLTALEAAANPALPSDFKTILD
Sequence (O60832 whole entry partner): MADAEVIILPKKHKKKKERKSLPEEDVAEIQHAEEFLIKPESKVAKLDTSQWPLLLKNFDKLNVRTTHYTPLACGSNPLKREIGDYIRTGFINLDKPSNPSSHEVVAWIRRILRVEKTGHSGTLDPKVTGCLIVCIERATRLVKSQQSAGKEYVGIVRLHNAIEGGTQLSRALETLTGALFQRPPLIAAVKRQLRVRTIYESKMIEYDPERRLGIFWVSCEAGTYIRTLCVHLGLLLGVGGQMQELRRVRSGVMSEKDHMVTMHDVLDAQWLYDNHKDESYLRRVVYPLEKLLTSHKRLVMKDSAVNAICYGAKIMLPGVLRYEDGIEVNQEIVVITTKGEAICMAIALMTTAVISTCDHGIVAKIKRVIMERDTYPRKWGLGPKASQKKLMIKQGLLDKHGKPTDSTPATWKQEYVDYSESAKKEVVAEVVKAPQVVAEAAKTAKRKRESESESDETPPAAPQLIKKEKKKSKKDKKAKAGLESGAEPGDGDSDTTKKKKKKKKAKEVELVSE
Sequence (Q9NPE3 whole entry partner): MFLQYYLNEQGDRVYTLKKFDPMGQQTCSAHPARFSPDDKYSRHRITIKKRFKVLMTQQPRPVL
Sequence (Q9NX24 whole entry partner): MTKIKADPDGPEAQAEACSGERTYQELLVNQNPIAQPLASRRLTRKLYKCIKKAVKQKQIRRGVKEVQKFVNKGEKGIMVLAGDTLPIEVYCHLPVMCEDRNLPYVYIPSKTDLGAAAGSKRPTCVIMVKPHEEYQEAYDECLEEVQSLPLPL
Sequence (Q9NY12 whole entry partner): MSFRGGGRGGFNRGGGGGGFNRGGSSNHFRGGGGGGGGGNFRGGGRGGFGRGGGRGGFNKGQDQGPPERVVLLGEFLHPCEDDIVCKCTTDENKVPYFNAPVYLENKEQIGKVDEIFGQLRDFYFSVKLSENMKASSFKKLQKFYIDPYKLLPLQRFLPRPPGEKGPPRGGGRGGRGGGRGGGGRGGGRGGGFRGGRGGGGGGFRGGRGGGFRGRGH
assay protocol: Telomerase inhibition (IC50) with cellular extract or other preparation containing telomerase
Assay type: biochemical
condition: approximate values; read-out: IC50

>  <smiles data>
O=C(NNC(=S)Nc1cc(Cl)c(Cl)c(Cl)c1Cl)c1sc2cc(-c3ccccc3)ccc2c1Cl

>  <measurement unit>
µM

>  <IC50>
10

$$$$
>  <smiles data>
Cc1ccc(Sc2ccccc2NC(=S)NNC(=O)c2cc3cc(NC(=S)Nc4ccccc4Sc4ccc(C)cc4)ccc3s2)cc1

>  <measurement unit>
µM

>  <IC50>
12

$$$$
>  <smiles data>
O=C(NNC(=S)Nc1ccc(Sc2ccc([N+](=O)[O-])cc2)cc1)c1cc2c(F)cccc2s1

>  <measurement unit>
µM

>  <IC50>
6

$$$$
>  <smiles data>
Cc1ccc(Sc2ccccc2NC(=S)NNC(=O)c2cc3cccc(F)c3s2)cc1

>  <measurement unit>
µM

>  <IC50>
6

$$$$
>  <smiles data>
O=C(NNC(=S)Nc1cc(Cl)c(Cl)cc1Cl)c1cc2c(Cl)cccc2s1

>  <measurement unit>
µM

>  <IC50>
10

$$$$
>  <smiles data>
COc1ccc2c(Cl)c(C(=O)NNC(=S)Nc3cc(Cl)c(Cl)c(Cl)c3Cl)sc2c1

>  <measurement unit>
µM

>  <IC50>
5

$$$$
>  <smiles data>
O=C(NNC(=S)Nc1cc(Cl)c(Cl)c(Cl)c1Cl)c1cc2c(Cl)cccc2s1

>  <measurement unit>
µM

>  <IC50>
7

$$$$
>  <smiles data>
O=C(NNC(=S)Nc1cc(Cl)ccc1Cl)c1sc2ccc(Cl)c(Cl)c2c1Cl

>  <measurement unit>
µM

>  <IC50>
7

$$$$
